- Test system: biotinyl-Phe-oxazolone
- Run description: self-aminoacylation, catalytic enhancement (BFO) (fold over background); higher = more active; k-Seq, kA / k0A0; sequences stand for … in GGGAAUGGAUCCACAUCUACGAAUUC…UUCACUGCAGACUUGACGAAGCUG
Variants at the floor of the assay were thinned out.
# self-aminoacylation per entry
No unit in the answer, please; the number alone is enough.

Recorded results for 5 sequences are shown here.
CUAGUUCAAACAAUGGGUCUG [Fam1A.1 aminoacylation ribozyme variant] ... 0.792
CCACACUUCAAGCAAUCAGUA [Fam1B.1 aminoacylation ribozyme variant] ... 1.17
AUUAACCUGGUCAUCCAGUGA [Fam2.1 aminoacylation ribozyme variant] ... 18.6
AUACUUCAAACAAUCGGUCUC [Fam1A.1 aminoacylation ribozyme variant] ... 13.5
CUACUUCAAAGAAUCGGUUUG [Fam1A.1 aminoacylation ribozyme variant] ... 5.29

Task item: Could you share which self-aminoacylation value was measured for AUUAGCCUGGUCAUCUAGUGA [Fam2.1 aminoacylation ribozyme variant] ?
Reply: 19.2

Task item: Given the sequence CCGCACUUCAAGCGAUCGGUC [Fam1B.1 aminoacylation ribozyme variant] , what is its reported self-aminoacylation?
Reply: 2.22

* * *

- Test system: biotinyl-Met-oxazolone
- Run description: self-aminoacylation, catalytic enhancement (BMO) (fold over background); higher = more active; k-Seq, kA / k0A0; sequences stand for … in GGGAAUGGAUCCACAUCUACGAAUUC…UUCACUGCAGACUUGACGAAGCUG
Fewer inactive variants are shown than the library holds.
Reported metric: self-aminoacylation

Task item: Recorded self-aminoacylation of CCACACUUCCAGAAAUCGGUC [Fam1B.1 aminoacylation ribozyme variant] , please.
Reply: 0.808

* * *

- Tested on: biotinyl-Trp-oxazolone
- Run description: self-aminoacylation, catalytic enhancement (BWO) (fold over background); higher = more active; k-Seq, kA / k0A0; sequences stand for … in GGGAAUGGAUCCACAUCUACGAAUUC…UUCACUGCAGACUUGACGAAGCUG
Fewer inactive variants are shown than the library holds.
Cut-off 1 on self-aminoacylation, inclusive. At or above means criterion met; below means criterion not met.

CCACACUUCAAGCGAUCGGUC [Fam1B.1 aminoacylation ribozyme variant] ... criterion met

Task item: Decide: self-aminoacylation of CCACACUUCAAGCGAUCGGAC [Fam1B.1 aminoacylation ribozyme variant] >= 1?
Reply: criterion met

Task item: Textbook exercise: given the entry GUUCACCUAGGUCAUCAGGUG [Fam2.2 aminoacylation ribozyme variant] , state whether its self-aminoacylation is greater than or equal to 1.
Reply: criterion met

Task item: Check this sequence for self-aminoacylation at or above 1: CAGUUUGCUAAUAGUCGCGAG [Fam3.1 aminoacylation ribozyme variant]
Reply: criterion met

Task item: Does the sequence CCACACUUCAAGGAAUCGGUA [Fam1B.1 aminoacylation ribozyme variant] have recorded self-aminoacylation that is 1 or more?
Reply: criterion not met

Task item: Given the entry CCACACUGCAGGCAAUCGGUC [Fam1B.1 aminoacylation ribozyme variant] , answer whether its self-aminoacylation meets or surpasses 1.
Reply: criterion met

* * *

In this section, each of the sequences is paired with its reported self-aminoacylation.
- Tested on: biotinyl-Met-oxazolone
- Run description: self-aminoacylation, catalytic enhancement (BMO) (fold over background); higher = more active; k-Seq, kA / k0A0; sequences stand for … in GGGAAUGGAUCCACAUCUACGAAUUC…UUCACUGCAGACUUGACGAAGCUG
Fewer inactive variants are shown than the library holds.
Answer with a number only.

For orientation, consider the following solved cases.
AUUACCCUGGUCAUAGCGUGA [Fam2.1 aminoacylation ribozyme variant] ... 8.87
CUACUUCGAACAAUCGGUCGG [Fam1A.1 aminoacylation ribozyme variant] ... 1.34
AUUACCCUGGUCAACGAGUCA [Fam2.1 aminoacylation ribozyme variant] ... 1.05
AUUCAACUAGGUCAUCGGGUA [Fam2.2 aminoacylation ribozyme variant] ... 2.01
AUUCAGAUAGGUCAUCGGGUG [Fam2.2 aminoacylation ribozyme variant] ... 6.75
AUUCUCCUAGGUCAUCAGGUG [Fam2.2 aminoacylation ribozyme variant] ... 2.62

Task item: Give its self-aminoacylation value. Item: AUUCACCUAGGUUAUUGGGUG [Fam2.2 aminoacylation ribozyme variant]
Reply: 5.84

Task item: What does the data say about its self-aminoacylation? Entry: AUUGCCCUGGUCAUUGAGUGA [Fam2.1 aminoacylation ribozyme variant]
Reply: 8.44

Task item: Need self-aminoacylation of AUUCCCCUAGGUCUUCGGGUG [Fam2.2 aminoacylation ribozyme variant] , thanks.
Reply: 19.3

Task item: Item AUUCACCUAUGUCAUCGGAUG [Fam2.2 aminoacylation ribozyme variant] has what recorded self-aminoacylation?
Reply: 0.581

Task item: What measured self-aminoacylation goes with CUCCUUCAAACAAUCCGUCUG [Fam1A.1 aminoacylation ribozyme variant] ?
Reply: 0.657
